# System Name: GDP-bound KRAS protein (aa 1-169), containing both G12C and C118A amino acid substitutions (Homo sapiens (Human), UniProt P01116, C118A/G12C)
# Sequence (P01116 other isoform, or with tags, fused parts or gaps G12C/C118A): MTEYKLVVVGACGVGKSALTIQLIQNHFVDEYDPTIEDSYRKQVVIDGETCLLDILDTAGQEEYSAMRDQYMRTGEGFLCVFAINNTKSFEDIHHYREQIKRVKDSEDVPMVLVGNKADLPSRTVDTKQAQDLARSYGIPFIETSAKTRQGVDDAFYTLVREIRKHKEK
# Test Description: Coupled nucleotide exchange assay (SOS-mediated nucleotide exchange, AlphaScreen)
# Assay type: biochemical
# Recorded Conditions: read-out: Coupled exchange IC50 (5 min; μM); 5 min compound pre-incubation
Criterion: IC50 strictly less than 0.6 µM. Met: Yes. Not met: No.

Exercise: IC50 strictly < 0.6 µM for this molecule? C=CC(=O)N1C[C@H](C)N(c2nc(=O)n3c4nc(c(Cl)cc24)-c2ccccc2C/C=C\Cc2cccc(C(C)C)c2-3)C[C@H]1C [Example 146-1]
Key: No

Exercise: Lab log: compare recorded IC50 with 0.6 µM; is it strictly lower for C=CC(=O)N1C[C@@H]2CC[C@H]1CN2c1nc(=O)n(-c2c(C)ccnc2C(C)C)c2nc(-c3ccccc3F)c(Cl)cc12 (atropisomer, axis not shown; (M)) ?
Key: No

Exercise: hey, is IC50 for C=CC(=O)N1C[C@H](C)N(c2nc(=O)n3c4nc(c(Cl)cc24)-c2ccccc2C/C=C/Cc2cccc(C(C)C)c2-3)C[C@H]1C (single isomer, unassigned) [Example 146-2-1] lower than 0.6 µM or not?
Key: Yes

Exercise: Does C=CC(=O)N1CCN(c2nc(=O)n(-c3c(C)ccnc3C(C)C)c3nc(-c4c(O)cccc4F)c(F)cc23)C(C)C1C (single isomer, unassigned) [Example 124-14-1] have IC50 strictly under 0.6 µM?
Key: No

Exercise: A record lists C=CC(=O)N1C[C@H](C)N(c2nc(=O)n(-c3c(C)ccnc3C(C)C)c3nc(C4CC4)c(Cl)cc23)C[C@H]1C (atropisomer, axis not shown; (M)) . Is its IC50 below 0.6 µM?
Key: Yes

Exercise: API: query returns whether the molecule falls strictly under 0.6 µM in IC50. Query: C=CC(=O)N1C[C@H](C)N(c2nc(=O)n(-c3c(C)ccnc3C(C)C)c3nc(-c4c(F)cccc4NC(=O)C(F)(F)F)c(Cl)cc23)C[C@H]1C (atropisomer, axis not shown; (M))
Key: Yes

Exercise: # TODO verify IC50 < 0.6 µM strictly for this molecule: `C=CC(=O)N1C[C@H](C)N(c2nc(=O)n(-c3c(C(C)C)nc(N)nc3C(C)C)c3nc(-c4ccccc4F)c(Cl)cc23)C[C@H]1C`
Key: Yes

Exercise: Hello, is IC50 of the following molecule strictly smaller than 0.6 µM? C=CC(=O)N1C[C@H](C)N(c2nc(=O)n(-c3c(C)ccnc3C(C)C)c3nc(-c4cc(F)ccc4F)c(F)cc23)C[C@H]1C (atropisomer, axis not shown; (M))
Key: No

Exercise: Below 0.6 µM on IC50? Entry C=CC(=O)N1C[C@H](C)N(c2nc(=O)n(-c3c(CC)ccnc3C(C)C)c3nc(-c4ccccc4F)c(Cl)cc23)C[C@H]1C (single isomer, unassigned) [Example 55-58-1]
Key: Yes

Exercise: Hello, is IC50 of the following molecule strictly smaller than 0.6 µM? C=CC(=O)N1CCN(c2nc(=O)n(-c3c(C)ccnc3C(C)C)c3nc(-c4ccccc4F)c(Cl)cc23)[C@H]2C[C@H]21 (atropisomer, axis not shown; (M))
Key: Yes
